Entries annotated with measured pEC50
ASSAYED_TARGET: UniProtKB P09616
ASSAY_REMARKS: cell-based
pEC50: −log10 of the molar value.
RESULT_TYPE: pEC50

INSERT INTO results (molecule, assayed_target, result_value) VALUES
  ('Cc1cc2[nH]c(=O)c(=O)[nH]c2cc1S(=O)(=O)Nc1ccc(-c2ccc3c(C)c[nH]c3c2)c(Cl)c1 [Compound 352]', 'UniProtKB P09616', '6.00 to 7.00'),
  ('O=c1[nH]c2cc3c(cc2[nH]c1=O)S(=O)(=O)N(c1ccc(OC(F)(F)F)cc1)CCO3 [Compound 237]', 'UniProtKB P09616', '6.00 to 7.00'),
  ('Cc1cc2[nH]c(=O)c(=O)[nH]c2cc1S(=O)(=O)Nc1ccc(-c2ccc3c(c2)OCO3)c(Cl)c1 [Compound 247]', 'UniProtKB P09616', '> 7.52'),
  ('Cc1cc2[nH]c(=O)c(=O)[nH]c2cc1S(=O)(=O)Nc1ccc(-c2c(F)cccc2F)c(Cl)c1 [Compound 308]', 'UniProtKB P09616', '7.00 to 7.52'),
  ('Cc1cc2[nH]c(=O)c(=O)[nH]c2cc1S(=O)(=O)Nc1ccc(-c2ccn3ccnc3c2)c(Cl)c1 [Compound 336]', 'UniProtKB P09616', '7.00 to 7.52'),
  ('[2H]C([2H])([2H])Oc1ccc(-c2ccc(NS(=O)(=O)c3cc4[nH]c(=O)c(=O)[nH]c4cc3C)cc2Cl)cc1 [Compound 267]', 'UniProtKB P09616', '> 7.52'),
  ('Cc1cc2[nH]c(=O)c(=O)[nH]c2cc1S(=O)(=O)Nc1ccc(-c2cc(F)cc(C(N)=O)c2)c(Cl)c1 [Compound 390]', 'UniProtKB P09616', '> 7.52'),
  ('O=c1[nH]c2cc(NCCO)c(S(=O)(=O)Nc3ccc(OC(F)(F)F)cc3)cc2[nH]c1=O [Compound 281]', 'UniProtKB P09616', '> 7.52'),
  ('Cc1cc2[nH]c(=O)c(=O)[nH]c2cc1S(=O)(=O)Nc1ccc(OC(F)(F)F)cc1 [drawing 469 (R^2 = CH3)]', 'UniProtKB P09616', 7.43),
  ('[2H]C([2H])([2H])c1cc2[nH]c(=O)c(=O)[nH]c2cc1S(=O)(=O)Nc1ccc(-c2ccc(F)cc2)c(Cl)c1 [Compound 387]', 'UniProtKB P09616', '> 7.52'),
  ('O=c1[nH]c2cc(OC3CC3)c(S(=O)(=O)Nc3ccc(OC(F)(F)F)cc3)cc2[nH]c1=O [Compound 382]', 'UniProtKB P09616', '5.46 to 6.00'),
  ('Cc1cn2ccc(-c3ccc(NS(=O)(=O)c4cc5[nH]c(=O)c(=O)[nH]c5cc4C)cc3Cl)cc2n1 [Compound 338]', 'UniProtKB P09616', '> 7.52'),
  ('Cc1cc2[nH]c(=O)c(=O)[nH]c2cc1S(=O)(=O)Nc1ccc(-c2cc(Cl)cc(Cl)c2)c(Cl)c1 [Compound 315]', 'UniProtKB P09616', '6.00 to 7.00'),
  ('Cc1cc2[nH]c(=O)c(=O)[nH]c2cc1S(=O)(=O)Nc1ccc(-c2cc(F)c3c(c2)NCCO3)c(Cl)c1 [Compound 357]', 'UniProtKB P09616', '> 7.52'),
  ('Cc1nc2ccc(NS(=O)(=O)c3cc4[nH]c(=O)c(=O)[nH]c4cc3C)cc2s1 [Compound 239]', 'UniProtKB P09616', '5.46 to 6.00'),
  ('[2H]C([2H])([2H])c1cc2[nH]c(=O)c(=O)[nH]c2cc1S(=O)(=O)Nc1ccc(OC(F)(F)F)cc1 [Compound 217]', 'UniProtKB P09616', '> 7.52'),
  ('Cc1cc2[nH]c(=O)c(=O)[nH]c2cc1S(=O)(=O)Nc1ccc(-c2cccc(N)c2)c(Cl)c1 [Compound 311]', 'UniProtKB P09616', '7.00 to 7.52'),
  ('Cc1cc2[nH]c(=O)c(=O)[nH]c2cc1S(=O)(=O)Nc1ccc(-c2ccc3[nH]c(=O)[nH]c3c2)c(Cl)c1 [Compound 294]', 'UniProtKB P09616', '6.00 to 7.00'),
  ('Cc1cc2[nH]c(=O)c(=O)[nH]c2cc1S(=O)(=O)Nc1ccc(N2CCOC[C@H]2C)c(Cl)c1 [Compound 243]', 'UniProtKB P09616', '5.46 to 6.00'),
  ('COc1ccc(-c2ncc(NS(=O)(=O)c3cc4[nH]c(=O)c(=O)[nH]c4cc3C)cc2Cl)cc1F [Compound 303]', 'UniProtKB P09616', '6.00 to 7.00'),
  ('Cc1cc2[nH]c(=O)c(=O)[nH]c2cc1S(=O)(=O)Nc1ccc(C2CCCCC2)c(Br)c1 [Compound 306]', 'UniProtKB P09616', '7.00 to 7.52'),
  ('Cc1cc2[nH]c(=O)c(=O)[nH]c2cc1S(=O)(=O)Nc1cnc(-c2ccc(F)c(Cl)c2)c(Cl)c1 [Compound 214]', 'UniProtKB P09616', '6.00 to 7.00');

---

ASSAYED_TARGET: hemolysin alpha from Staphylococcus aureus (Staphylococcus aureus, UniProt P09616)
Sequence (P09616 27-319 limits assumed): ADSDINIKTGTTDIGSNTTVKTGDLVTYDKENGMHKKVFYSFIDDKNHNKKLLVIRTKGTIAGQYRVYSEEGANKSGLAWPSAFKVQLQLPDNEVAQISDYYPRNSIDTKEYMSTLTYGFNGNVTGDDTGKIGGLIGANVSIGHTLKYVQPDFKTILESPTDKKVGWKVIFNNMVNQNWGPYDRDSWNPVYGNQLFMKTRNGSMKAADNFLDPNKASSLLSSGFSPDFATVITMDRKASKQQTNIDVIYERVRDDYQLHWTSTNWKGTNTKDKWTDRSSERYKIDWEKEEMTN
ASSAY_REMARKS: cell-based
pIC50: −log10 of the molar value.
RESULT_TYPE: pIC50

INSERT INTO results (smiles_notation, result_value) VALUES
  ('Cc1ccc(NS(=O)(=O)c2cc3[nH]c(=O)c(=O)[nH]c3cc2C)cc1C', '5.46 to 6.00'),
  ('O=c1[nH]c2cc(Cl)c(S(=O)(=O)Nc3ccc(-c4ccccc4)cc3)cc2[nH]c1=O', '6.00 to 7.00'),
  ('O=c1[nH]c2cc(F)c(S(=O)(=O)Nc3ccc(-c4cccc(N5CCCC5)c4)c(Cl)c3)cc2[nH]c1=O', '> 7.52'),
  ('Cc1cc(NS(=O)(=O)c2cc3[nH]c(=O)c(=O)[nH]c3cc2C)ccc1-c1ccccc1', '> 7.52'),
  ('COc1cc(NS(=O)(=O)c2cc3[nH]c(=O)c(=O)[nH]c3cc2C)ccc1-c1ccccc1', '6.00 to 7.00'),
  ('Cc1ccc(-c2ccc(NS(=O)(=O)c3cc4[nH]c(=O)c(=O)[nH]c4cc3C)cc2)cc1', '6.00 to 7.00'),
  ('Cc1cc2[nH]c(=O)c(=O)[nH]c2cc1S(=O)(=O)Nc1cc(C)c(-c2cnn(C)c2)c(C)c1', '5.46 to 6.00'),
  ('Cc1cc(NS(=O)(=O)c2cc3[nH]c(=O)c(=O)[nH]c3cc2F)ccc1-c1ccncc1', '6.00 to 7.00'),
  ('CCOc1ccc(NS(=O)(=O)c2cc3[nH]c(=O)c(=O)[nH]c3cc2C)cc1', '6.00 to 7.00'),
  ('Cc1cc2[nH]c(=O)c(=O)[nH]c2cc1S(=O)(=O)Nc1ccc(-c2ccc3c(c2)NCC3)c(Cl)c1', '> 7.52'),
  ('Cc1cc2[nH]c(=O)c(=O)[nH]c2cc1S(=O)(=O)Nc1ccc(-c2ccccc2C(N)=O)cc1', '5.46 to 6.00'),
  ('O=c1[nH]c2cc(Cl)c(S(=O)(=O)Nc3ccc(C4CC4)cc3)cc2[nH]c1=O', '6.00 to 7.00'),
  ('Cc1cc(NS(=O)(=O)c2cc3[nH]c(=O)c(=O)[nH]c3cc2F)ccc1-c1ccoc1', '6.00 to 7.00'),
  ('Cc1cc2[nH]c(=O)c(=O)[nH]c2cc1S(=O)(=O)Nc1ccc(-c2ccc(F)cc2)c(Cl)c1', '> 7.52'),
  ('CCCc1ccc(NS(=O)(=O)c2cc3[nH]c(=O)c(=O)[nH]c3cc2C)cc1', '> 7.52'),
  ('COc1cc(NS(=O)(=O)c2cc3[nH]c(=O)c(=O)[nH]c3cc2C)ccc1Br', '6.00 to 7.00'),
  ('Cc1ccccc1-c1ccc(NS(=O)(=O)c2cc3[nH]c(=O)c(=O)[nH]c3cc2C)cc1Cl', '6.00 to 7.00'),
  ('Cc1cc2[nH]c(=O)c(=O)[nH]c2cc1S(=O)(=O)Nc1ccc(Cl)cc1', '6.00 to 7.00'),
  ('Cc1ccccc1-c1c(C)cc(NS(=O)(=O)c2cc3[nH]c(=O)c(=O)[nH]c3cc2C)cc1C', '6.00 to 7.00'),
  ('O=c1[nH]c2cc(Cl)c(S(=O)(=O)Nc3ccc(C(F)(F)F)c(Cl)c3)cc2[nH]c1=O', '6.00 to 7.00'),
  ('Cc1cc2[nH]c(=O)c(=O)[nH]c2cc1S(=O)(=O)Nc1ccc(-c2cncc(Cl)c2)c(Cl)c1', '7.00 to 7.52');
